assay_context: human
Quick reference: Hepatotoxicity (granulomatous hepatitis) of the listed items.
recorded_metric: Hepatotoxicity (granulomatous hepatitis)

INSERT INTO assay_data (compound, recorded_metric, numeric_value) VALUES
  ('CC(C)NCC1CCc2cc(CO)c([N+](=O)[O-])cc2N1 (stereo unspecified)', 'Hepatotoxicity (granulomatous hepatitis)', 0),
  ('NS(=O)(=O)c1cc2c(cc1Cl)NC(C(Cl)Cl)NS2(=O)=O (stereo unspecified) [TRICHLORMETHIAZIDE]', 'Hepatotoxicity (granulomatous hepatitis)', 1),
  ('O=C[C@H](O)[C@@H](O)[C@H](O)[C@H](O)CO[C@H]1O[C@H](CO[C@H]2O[C@H](CO)[C@@H](O)[C@H](O)[C@H]2O)[C@@H](O)[C@H](O)[C@H]1O', 'Hepatotoxicity (granulomatous hepatitis)', 0),
  ('C[C@H]1[C@H](OC(=O)CCC(=O)O)O[C@@H]2O[C@@]3(C)CC[C@H]4[C@H](C)CC[C@@H]1[C@@]24OO3 [ARTESUNATE]', 'Hepatotoxicity (granulomatous hepatitis)', 0),
  ('Cc1ccc(C(=O)c2ccc(CC(=O)O)n2C)cc1', 'Hepatotoxicity (granulomatous hepatitis)', 0),
  ('CCOC(OCC)C(=O)OCC(=O)[C@]1(O)Cc2c(O)c3c(c(O)c2[C@@H](O[C@H]2C[C@H](N)[C@H](O)[C@H](C)O2)C1)C(=O)c1c(OC)cccc1C3=O', 'Hepatotoxicity (granulomatous hepatitis)', 0),
  ('Cc1onc(-c2ccccc2Cl)c1C(=O)N[C@@H]1C(=O)N2[C@@H]1SC(C)(C)[C@@H]2C(=O)O', 'Hepatotoxicity (granulomatous hepatitis)', 0),
  ('Cc1ncc([N+](=O)[O-])n1CC(O)CCl (stereo unspecified)', 'Hepatotoxicity (granulomatous hepatitis)', 0),
  ('CC1(C)S[C@@H]2[C@H](NC(=O)C(C(=O)O)c3ccccc3)C(=O)N2[C@H]1C(=O)O (stereo partly specified)', 'Hepatotoxicity (granulomatous hepatitis)', 0),
  ('CCCCC(=O)N(Cc1ccc(-c2ccccc2-c2nnn[nH]2)cc1)[C@H](C(=O)O)C(C)C', 'Hepatotoxicity (granulomatous hepatitis)', 0),
  ('CN(C)CC/C=C1/c2ccccc2Sc2ccc(Cl)cc21', 'Hepatotoxicity (granulomatous hepatitis)', 0),
  ('O=C(c1cc(O)c(O)c(O)c1)c1ccc(O)c(O)c1O', 'Hepatotoxicity (granulomatous hepatitis)', 0),
  ('Cc1c(C)c2c(c(C)c1O)CCC(C)(COc1ccc(CC3SC(=O)NC3=O)cc1)O2 (stereo unspecified)', 'Hepatotoxicity (granulomatous hepatitis)', 1),
  ('N[C@@H](C(=O)N[C@@H]1C(=O)N2C(C(=O)O)=C(Cl)CC[C@H]12)c1ccccc1 [LORACARBEF ANHYDROUS]', 'Hepatotoxicity (granulomatous hepatitis)', 0),
  ('COc1ccc(/C=C/C(=O)Nc2ccccc2C(=O)O)cc1OC', 'Hepatotoxicity (granulomatous hepatitis)', 0),
  ('CS(=O)(=O)c1ccc([C@@H](O)[C@@H](CO)NC(=O)C(Cl)Cl)cc1', 'Hepatotoxicity (granulomatous hepatitis)', 0);

* * *

assay_context: human
recorded_metric: Hepatotoxicity (granulomatous hepatitis)

INSERT INTO results (compound, result) VALUES
  ('CC#C[C@]1(O)CC[C@H]2[C@@H]3CCC4=CC(=O)CCC4=C3[C@@H](c3ccc(N(C)C)cc3)C[C@@]21C', 0),
  ('COc1ccc(Cl)cc1C(=O)NCCc1ccc(S(=O)(=O)NC(=O)NC2CCCCC2)cc1 [GLYBURIDE]', 2),
  ('CNNCc1ccc(C(=O)NC(C)C)cc1', 1),
  ('CO[C@@]1(NC(=O)CSCC#N)C(=O)N2C(C(=O)O)=C(CSc3nnnn3C)CS[C@@H]21', 0),
  ('CCOC(=O)[C@H](CCc1ccccc1)N[C@@H](C)C(=O)N1[C@H](C(=O)O)C[C@@H]2CCC[C@@H]21', 0),
  ('NCC[C@H](O)C(=O)N[C@@H]1C[C@H](N)[C@@H](O[C@H]2O[C@H](CN)CC[C@H]2N)[C@H](O)[C@H]1O[C@H]1O[C@H](CO)[C@@H](O)[C@H](N)[C@H]1O', 0),
  ('CNC(=O)c1cccc2c(Nc3ccc(NS(C)(=O)=O)cc3OC)c3cccc(C)c3nc12', 0);

* * *

assay_context: human
recorded_metric: Hepatotoxicity (benign tumour)

INSERT INTO results (compound, numeric_value) VALUES
  ('CC1=C(C(=O)O)N2C(=O)[C@@H](NC(=O)[C@H](N)C3=CCC=CC3)[C@H]2SC1', 0),
  ('CC[N+](C)(C/C=C/C1=C(C(=O)[O-])N2C(=O)[C@@H](NC(=O)/C(=N\OCF)c3nsc(N)n3)[C@H]2SC1)CC(N)=O (some centres not stated)', 0),
  ('CC1(C)S[C@@H]2[C@H](NC(=O)[C@H](N)c3ccc(O)cc3)C(=O)N2[C@H]1C(=O)O', 0),
  ('N[C@@H](Cc1cc(I)c(Oc2cc(I)c(O)c(I)c2)c(I)c1)C(=O)O', 0),
  ('O=C1Nc2ccc(Cl)cc2[C@@](C#CC2CC2)(C(F)(F)F)O1', 0),
  ('COc1ccc(Cl)cc1C(=O)NCCc1ccc(S(=O)(=O)NC(=O)NC2CCCCC2)cc1 [GLYBURIDE]', 0),
  ('CC(C)[N+](C)(CCC(C(N)=O)(c1ccccc1)c1ccccc1)C(C)C [ISOPROPAMIDE]', 0),
  ('NC(=O)CCC/N=C(\c1ccc(Cl)cc1)c1cc(F)ccc1O [PROGABIDE]', 0),
  ('CC1COc2c(N3CCN(C)CC3)c(F)cc3c(=O)c(C(=O)O)cn1c23 (configuration not stated)', 0),
  ('Nc1nc(Cl)nc2c1ncn2[C@H]1C[C@H](O)[C@@H](CO)O1', 0),
  ('CC1(C)S[C@@H]2[C@H](NC(=O)C(C(=O)O)c3ccccc3)C(=O)N2[C@H]1C(=O)O (some centres not stated)', 0),
  ('C[C@@H](CN1CC(=O)NC(=O)C1)N1CC(=O)NC(=O)C1', 0),
  ('O=C1CN(/N=C/c2ccc([N+](=O)[O-])o2)C(=O)N1', 1),
  ('Nc1c2c(nc3ccccc13)CCCC2', 0),
  ('CC(OC(=O)OC1CCCCC1)OC(=O)C1=C(CSc2nnnn2CCN(C)C)CS[C@@H]2[C@H](NC(=O)Cc3csc(N)n3)C(=O)N12 (some centres not stated)', 0),
  ('CC1CCc2cc(F)cc3c(=O)c(C(=O)O)cn1c23 (configuration not stated)', 0),
  ('CO/N=C(\C(=O)N[C@@H]1C(=O)N2C(C(=O)O)=C(C)CS[C@H]12)c1csc(N)n1', 0);

* * *

assay_method_text: Highest frequency of moderate liver toxicity observed during clinical trials, expressed as a percentage. [column '% BIOL' in source]
assay_context: human
Quick reference: Hepatotoxicity (moderate) of the listed items.
recorded_metric: Hepatotoxicity (moderate) (%)

INSERT INTO assay_data (compound, value_unit, numeric_value) VALUES
  ('Cc1cccc(Nc2cc(Cl)nc(SCC(=O)NCCO)n2)c1C', '%', 0),
  ('CN(C)C(=O)Oc1cc(OC(=O)N(C)C)cc(C(O)CNC(C)(C)C)c1 (centres undefined)', '%', 0),
  ('CC(C)(CNC(N)=O)NCC(O)COC(=O)c1ccccc1F (centres undefined)', '%', 6.7),
  ('O=C(COCC(=O)Nc1c(I)cc(I)c(C(=O)O)c1I)Nc1c(I)cc(I)c(C(=O)O)c1I', '%', 0),
  ('C#CC(C)(O)CC (centres undefined)', '%', 0),
  ('CCN(CC)CCN1C(=O)CN=C(c2ccccc2F)c2cc(Cl)ccc21', '%', 0),
  ('CC(=O)O[C@]1(C(C)=O)CC[C@H]2[C@@H]3C=C(C)C4=CC(=O)CC[C@]4(C)[C@H]3CC[C@@]21C [MEGESTROL ACETATE]', '%', 12.8),
  ('NC(=O)c1cc[n+](CC2=C(C(=O)O)N3C(=O)[C@@H](NC(=O)[C@@H](c4ccccc4)S(=O)(=O)[O-])[C@H]3SC2)cc1', '%', 18.2),
  ('Nc1ccc(O)c(C(=O)O)c1', '%', 21);

* * *

assay_context: human
recorded_metric: Hepatotoxicity (benign tumour)

INSERT INTO results (molecule, recorded_metric, result) VALUES
  ('C=CCC1(C(C)C#CCC)C(=O)N=C(O)N(C)C1=O (stereo not drawn)', 'Hepatotoxicity (benign tumour)', 0),
  ('CNC(=O)[C@@H](NC(=O)[C@H](CC(C)C)[C@H](O)C(=O)NO)C(C)(C)C', 'Hepatotoxicity (benign tumour)', 0),
  ('CO[C@H]1/C=C/O[C@@]2(C)Oc3c(C)c(O)c4c(O)c(cc(O)c4c3C2=O)NC(=O)/C(C)=C\C=C\[C@H](C)[C@H](O)[C@@H](C)[C@@H](O)[C@@H](C)[C@H](OC(C)=O)[C@@H]1C', 'Hepatotoxicity (benign tumour)', 0),
  ('CO[C@]12CC[C@@]3(C[C@@H]1[C@](C)(O)C(C)(C)C)[C@H]1Cc4ccc(O)c5c4[C@@]3(CCN1CC1CC1)[C@H]2O5', 'Hepatotoxicity (benign tumour)', 0),
  ('CNC(=O)c1cccc2c(Nc3ccc(NS(C)(=O)=O)cc3OC)c3cccc(C)c3nc12', 'Hepatotoxicity (benign tumour)', 0),
  ('NNc1nnc(NN)c2ccccc12 [DIHYDRALAZINE]', 'Hepatotoxicity (benign tumour)', 0),
  ('O=c1n(CC2CO2)c(=O)n(CC2CO2)n1CC1CO1 (stereo not drawn)', 'Hepatotoxicity (benign tumour)', 0),
  ('CC(=O)N[C@H]1[C@H]([C@H](O)[C@H](O)CO)OC(C(=O)O)=C[C@@H]1N=C(N)N', 'Hepatotoxicity (benign tumour)', 0);
